# Assay System: T1, hDPEP3-ECD-His (human, UniProt Q9H4B8 36-463)
# T1 construct: also called hDPEP3-His; monomeric hDPEP3-His antigen; not shown: histidine tag
# T1 sequence: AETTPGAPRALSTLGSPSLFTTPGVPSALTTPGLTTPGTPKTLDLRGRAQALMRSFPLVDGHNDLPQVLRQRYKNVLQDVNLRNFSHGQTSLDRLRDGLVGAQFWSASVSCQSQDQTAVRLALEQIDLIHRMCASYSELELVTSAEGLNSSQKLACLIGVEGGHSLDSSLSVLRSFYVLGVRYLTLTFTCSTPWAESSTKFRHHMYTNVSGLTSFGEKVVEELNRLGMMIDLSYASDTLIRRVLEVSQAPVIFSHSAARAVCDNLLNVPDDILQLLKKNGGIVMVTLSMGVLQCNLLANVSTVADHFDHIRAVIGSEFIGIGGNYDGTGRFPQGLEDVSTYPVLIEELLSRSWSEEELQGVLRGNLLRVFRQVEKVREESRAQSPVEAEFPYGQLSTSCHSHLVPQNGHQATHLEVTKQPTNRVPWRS
# Assay Summary: BLI ForteBio RED, 200 nM hDPEP3-His, estimated grade
Measurement Kind: Kd

State the recorded Kd for this entry: SC34.46 (antibody, mouse IgG1, V domains shown) VH: QVQLQQSGTELARPGTSVKLSCKASGYTFRSYAISWVRQRTGQGLEWIGEIYPGSDKTYYNESLKGKVTLTTDKCSSTANMQLTSLTSEDSAVYFCARVHDYGSWFPYWGQGTLVTVSA VL: DIVMSQSPSSLAVSVGEKVTMSCKSSQSLLYSKYQKNFLAWYQQKPGQSPKLLIYWASTRESGVPDRFTGSGSGTDFTLTISNVKAEDLAVYYCQQYYRYPLTFGAGTTLELK
< 5 nM

State the recorded Kd for this entry: SC34.5 (antibody, mouse IgG1, V domains shown, also called SC34.05) VH: EVQLQQSGPELVKPGASMKISCKASGYSFTGYTMNWVKQSHGKNLEWIGLIYPYNDDTRYKQKFKGKATLTVDKSSSTAYMELLSLTSEDSAVYYCTRGYYGSPYFDVWGAGTTVTVSS VL: DIVMTQFPSSLAMSVGQKVTMNCKSSQSLLNSSNQKNYLAWFQQKPGQSPKLLVYFASTRESGVPDRFLGSGSGTDFTLTISSVQAEDLADYFCQQHYSTPFTFGSGTKLEIK
< 5 nM

State the recorded Kd for this entry: SC34.89 (antibody, mouse IgG1, V domains shown) VH: QVQLQQSGAELARPGASVKLSCKASGYTFTSYAISWVKQRTRQGLEWIGEIYPGSGDIHYSGKFKGKASLTTDKSSSTAYMQLSSLTSEDSAVYFCARVHDYGSWFPYWGQGTLVTVSA VL: DIVMSQSPSSLGVSVGEKVTLSCKSSQSLFNKRDQKNYLAWYQQKPGQSPKLLIYWASTRESGVPDRFTGSGSGTDFILTIRSVKAEDLAVYYCHQSYRYPLTFGAGTKLELK
< 5 nM
